Provenance of the data: patent US11485733B2

# System tested: D. immitis Slo-1 (Dirofilaria immitis, UniProt I0DFK5)
# Sequence (I0DFK5 1-1119): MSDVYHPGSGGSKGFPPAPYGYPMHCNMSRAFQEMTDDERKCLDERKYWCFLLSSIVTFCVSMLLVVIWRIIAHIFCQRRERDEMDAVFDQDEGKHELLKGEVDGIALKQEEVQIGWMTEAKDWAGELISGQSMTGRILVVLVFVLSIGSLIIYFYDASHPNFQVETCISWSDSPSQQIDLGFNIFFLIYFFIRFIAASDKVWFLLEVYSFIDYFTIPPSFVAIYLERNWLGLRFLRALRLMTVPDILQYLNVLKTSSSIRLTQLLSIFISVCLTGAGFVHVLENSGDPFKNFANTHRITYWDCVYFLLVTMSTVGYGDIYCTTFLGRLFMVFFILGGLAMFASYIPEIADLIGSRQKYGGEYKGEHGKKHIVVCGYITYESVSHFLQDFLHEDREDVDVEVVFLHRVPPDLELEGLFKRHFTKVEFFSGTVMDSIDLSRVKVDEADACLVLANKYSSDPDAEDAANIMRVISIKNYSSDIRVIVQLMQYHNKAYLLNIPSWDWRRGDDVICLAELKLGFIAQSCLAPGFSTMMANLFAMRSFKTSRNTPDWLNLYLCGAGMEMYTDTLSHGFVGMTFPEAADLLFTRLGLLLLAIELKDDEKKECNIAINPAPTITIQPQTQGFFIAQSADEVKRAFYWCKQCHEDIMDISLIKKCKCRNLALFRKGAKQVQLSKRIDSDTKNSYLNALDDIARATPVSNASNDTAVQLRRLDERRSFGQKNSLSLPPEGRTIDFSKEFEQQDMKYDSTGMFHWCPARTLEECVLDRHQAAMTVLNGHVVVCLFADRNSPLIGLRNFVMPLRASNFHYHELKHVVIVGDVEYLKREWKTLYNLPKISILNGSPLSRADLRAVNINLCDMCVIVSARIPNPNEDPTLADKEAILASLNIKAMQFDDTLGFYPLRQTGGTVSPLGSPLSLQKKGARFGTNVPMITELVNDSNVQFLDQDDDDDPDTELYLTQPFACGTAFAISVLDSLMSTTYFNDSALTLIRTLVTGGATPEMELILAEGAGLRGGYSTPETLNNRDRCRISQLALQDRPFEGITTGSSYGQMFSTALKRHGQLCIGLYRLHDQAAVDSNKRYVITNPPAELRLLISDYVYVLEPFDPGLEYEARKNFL
# Assay notes: D. immitis Slo-1, action at a recombinant CHO cell line (membrane potential, FLIPR)
Documented EC50 across a set of molecules

Field: example entries. Status: answers known.
{"columns": ["Molecule", "System tested", "EC50"],
 "data": [
  ["COc1ncc2c(N3CCOCC3)c(C(=O)N[C@H]3CCOc4ccccc43)cnc2c1-c1cccc(Cl)c1Cl [Example T2-6]", "D. immitis Slo-1 (Dirofilaria immitis, UniProt I0DFK5)", "3.16 to 31.6 nM"],
  ["CN(C)c1c(C(=O)N[C@H]2CCOc3ccccc32)cnc2c(-c3cc(Cl)cc(Cl)c3)cnnc12 [Example T6-3]", "D. immitis Slo-1 (Dirofilaria immitis, UniProt I0DFK5)", "31.6 to 316 nM"],
  ["CN(C)c1c(C(=O)N[C@H]2CCOc3ccccc32)nnc2c(-c3cccc(Cl)c3)cccc12 [Example T5-2]", "D. immitis Slo-1 (Dirofilaria immitis, UniProt I0DFK5)", "31.6 to 316 nM"],
  ["COc1cnc(-c2cc(F)cc(F)c2F)c2ncc(C(=O)N[C@H]3CCOc4ccccc43)c(N3CCOCC3)c12 [Example T1-9]", "D. immitis Slo-1 (Dirofilaria immitis, UniProt I0DFK5)", "31.6 to 316 nM"],
  ["CN(C)c1c(C(=O)N[C@H]2CCOc3ccccc32)cnc2c(-c3cccc(Cl)c3Cl)c(Cl)cnc12 [Example T3-8]", "D. immitis Slo-1 (Dirofilaria immitis, UniProt I0DFK5)", "3.16 to 31.6 nM"],
  ["COc1c(C(=O)N[C@H]2CCOc3ccccc32)nnc2c(-c3cc(Cl)cc(Cl)c3)cccc12 [Example T5-5]", "D. immitis Slo-1 (Dirofilaria immitis, UniProt I0DFK5)", "31.6 to 316 nM"]
]}

Input CN(C)c1c(C(=O)N[C@H]2CCOc3ccccc32)cnc2c(-c3cc(Cl)cc(Cl)c3)cncc12 [Example T2-1] . Output EC50: 31.6 to 316 nM
